These entries and their values trace back to patent US20260274955A1.

target: T1, Anti-CD28 Fab (SEQ ID NOs: 202, 203); assay: phage ELISA, Fab on plate, CD28 antigen as competitor
T1 construct: biotinylated and captured on neutravidin coated plates in the phage ELISA
T1 sequence (VH, as listed by the source, chain 1 of 2): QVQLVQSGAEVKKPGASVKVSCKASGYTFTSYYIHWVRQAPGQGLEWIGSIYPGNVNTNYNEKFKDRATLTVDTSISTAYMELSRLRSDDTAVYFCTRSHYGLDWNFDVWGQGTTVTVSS
T1 sequence (VL, as listed by the source, chain 2 of 2): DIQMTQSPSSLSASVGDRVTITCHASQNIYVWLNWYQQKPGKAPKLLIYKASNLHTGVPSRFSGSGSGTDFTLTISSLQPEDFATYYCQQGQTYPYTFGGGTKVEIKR
# yes (1) = Anti-CD28 Fab signal in the presence of CD28 below 0.08 (exclusive); no (0) = Anti-CD28 Fab signal in the presence of CD28 at/above 0.08

Example results:
INSERT INTO results (binder, label_value) VALUES
  ('YCDGHLPDYMAKCL [Phage-712]', 'yes (1)'),
  ('YCDGHAPEYIQKCL [Phage-625]', 'yes (1)');

Q) Consider the binder YCEGHSAEHMPKCL [Phage-696] . Is its Anti-CD28 Fab signal in the presence of CD28 strictly less than 0.08?
A) no (0)

Q) In the record for YCEGHLPRYMLKCL [Phage-671] , is Anti-CD28 Fab signal in the presence of CD28 less than 0.08?
A) no (0)

Q) Quick check: does YCEGHSQQYMWKCL [Phage-711] have Anti-CD28 Fab signal in the presence of CD28 under 0.08?
A) yes (1)

Q) Dear colleague, could you confirm whether Anti-CD28 Fab signal in the presence of CD28 of YCMGHLPIYMEKCL [Phage-670] falls below 0.08? Thanks.
A) yes (1)
